What inhibition was measured for each of the following?
test.description: M. tuberculosis H37Rv growth inhibitors, H37Rv strain (AID 1626);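 note: bacteria incubated seven days before Alamar blue readout; 0% = bacteria only wells and 100% = bacteria with antibiotic wells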
measurement.conditions: hits give high values, concentration not given here
The whole screen tested about 220,000 compounds, of which about 2,000 (0.91%) were called active. Inconclusive results (about 2%) are left out. A selection follows. Results with a measured potency or affinity are listed apart.
Give the value, in units of %, as a plain number.

// `O=C(Nc1ccc(Nc2ccncc2)cc1)c1ccc([N+](=O)[O-])cc1` : inhibition value = -0.61

For record `CCOc1ccc(-c2nnc(-c3ccc(OC)cc3)o2)cc1` the listed inhibition is 3.3

Per the records, this compound ( `O=C(Nc1cccc(Cl)c1)/C(=C\c1cccnc1)NC(=O)c1ccco1` ) has inhibition equal to 2.59

# compound `N=C1/C(=C/c2cccn2-c2ccc([N+](=O)[O-])cc2)C(=O)N=C2SC=CN12` ; its inhibition = -5.89

Sure, the documented inhibition for `O=C(O)COc1ccc2c(-c3ccccc3)cc(=O)oc2c1` is -6.46

Form: compound = `CCCOc1cc(N(CC)CC)ccc1/C=C(/C#N)c1nc2ccc(C)cc2[nH]1` ; inhibition = 61.6

inhibition reading for CCC(CO)Nc1nc(CN2CCCCC2)nc2scc(-c3ccccc3)c12 (stereo not drawn) : 7.81

# inhibition of `CN1CCN(c2nc(-c3cccnc3)nc3scc(-c4ccccc4)c23)CC1` = -0.01

Consider OCC1CCCN(c2nc(CN3CCCCC3)nc3scc(-c4ccccc4)c23)C1 (stereo not drawn) . Its measured inhibition is 1.65

Item: Cc1cccc(C(=O)N(c2ccccn2)C(C)c2ccco2)c1 (stereo not drawn) | inhibition: -1.89

The compound listed as `Cc1sc(NC(=O)CSc2nnc(-c3ccccc3)o2)c(C#N)c1C` shows inhibition equal to -2.26

Per the records, this compound ( `N=C1/C(=C/c2cccn2-c2cccc([N+](=O)[O-])c2)C(=O)N=C2SC=CN12` ) has inhibition equal to -11.3

Looking up `CN(c1ccccc1)S(=O)(=O)c1cccc(Cl)c1Cl` , I found its inhibition recorded as -4.92

Form: compound = `CCN(CC)c1ccc(/C=C(/C#N)c2nc3ccc(C)cc3[nH]2)c(OC(C)C)c1` ; inhibition = 16.2

Note to self: inhibition recorded for `CCOCCCNCc1ccc(OC)cc1` was -2.12

// inhibition value for Cc1ccc(C2C(C#N)=C(N)OC3=C2C(=O)CC(C)(C)C3)s1 (stereo not drawn) : 2.18

Per the records, this compound ( `CCOc1cc(CNc2ccc3c(c2)CCC3)ccc1OC` ) has inhibition equal to 46.6

Item: CC1CCCN(c2nc(-c3cccnc3)nc3scc(-c4ccccc4)c23)C1 (stereo not drawn) | inhibition: 10.2

response.value for `Nc1n[nH]c(-c2cccc([N+](=O)[O-])c2)n1` (field: inhibition) = 2.42

For record `CCn1c(/C=C/c2cccc([N+](=O)[O-])c2)nc2ccccc2c1=O` the listed inhibition is -7.86

The compound listed as `O=C(Nc1ccc(Nc2ccncc2)cc1)c1ccc(Nc2ccnc3ccc([N+](=O)[O-])cc23)cc1` shows inhibition equal to -3.41

inhibition measured on `c1ccc(-c2nc(-c3cccnc3)n[nH]2)cc1` = 4.63

Notebook: `COc1ccc(CNc2ccc3c(c2)CCC3)cc1OC` , inhibition read as 45.5

====

Give inhibition for every item shown.
test.description: M. tuberculosis H37Rv growth inhibitors, H37Rv strain (AID 1626);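 note: bacteria incubated seven days before Alamar blue readout; 0% = bacteria only wells and 100% = bacteria with antibiotic wells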
measurement.conditions: hits give high values, concentration not given here
The campaign covered roughly 220,000 compounds. About 2,000 (0.91%) were called active. About 2% were inconclusive and are not listed. The list is a sample of the results. Results with a measured potency or affinity are listed apart.
Your answer is read as %, so omit the unit and give the number.

// inhibition lookup, compound = `Cc1cc(OCC(=O)NC(C)C)ccc1Cl` , result: 8.21

Entry `Cc1ccccc1NC1=C/C(=N\S(=O)(=O)c2cccs2)c2ccccc2C1=O` ; inhibition = 61.1

Quick note, inhibition for CCOc1ccccc1NC(=O)C1CCCN(S(=O)(=O)c2ccc(OC)c(C)c2)C1 (stereo unspecified) landed at -3.35

Lookup result for `Cc1cccc(NC2=C/C(=N/S(=O)(=O)c3cccs3)c3ccccc3C2=O)c1` ; measured inhibition: 1.87

response.value for `CCOC(=O)c1ccc(N=Nc2c(C)c(C#N)c(O)[nH]c2=O)cc1` (field: inhibition) = 86.6

Entry `Cc1ccc(/C(O)=C/c2nc3cc(C)ccc3oc2=O)cc1` — recorded inhibition = 16.9

====

test.description: M. tuberculosis H37Rv growth inhibitors, H37Rv strain (AID 1626);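 note: bacteria incubated seven days before Alamar blue readout; 0% = bacteria only wells and 100% = bacteria with antibiotic wells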
measurement.conditions: hits give high values, concentration not given here
In all, about 220,000 compounds went through this assay and about 2,000 (0.91%) were called active. Roughly 2% stayed inconclusive and do not appear here. Only a sample is shown. Results with a measured potency or affinity are listed apart.
Please go through the items and note down their inhibition.
Report the figure in % without appending any unit label.

For this molecule ( `COc1ccc(-c2csc(/C(C#N)=C\c3ccc(O)c([N+](=O)[O-])c3)n2)cc1OC` ), measured inhibition is 73.4

Sure, the documented inhibition for `CNc1ccc(/C=C2\COc3ccccc3C2=O)cc1[N+](=O)[O-]` is 10.8

Lab note: `COc1ccc(/C=C2/CCc3ccccc3C2=O)cc1OC` gave inhibition of 5.56

# inhibition of `COc1cccc(-c2csc(N3CCN(C(=O)Nc4ccc(Cl)cc4)CC3)n2)c1` = 80

Memo: `Cc1cccc2nc(-c3ccco3)c(Nc3ccccc3)n12` , reported inhibition: -7.83

Sure, the documented inhibition for `O=C(NC1CC1)C1=C[C@@H](c2ccccc2)C[C@@H](OCc2ccc(CO)cc2)O1` is -10.6

Entry `Cc1cccc2nc(-c3cccnc3)c(Nc3ccccc3)n12` — recorded inhibition = -0.36

Entry `Cc1ccccc1Nc1c(-c2ccncc2)nc2ccc(Cl)cn12` — recorded inhibition = -2.88

molecule `Cc1ccc2nc(-c3ccco3)c(Nc3ccccc3)n2c1` , inhibition observed: 2.97

Noted for `Cc1cc(NC(=O)CSc2nnc(C3CC3)n2N)c([N+](=O)[O-])cc1C` : its inhibition reads -1.15

GET /value?item= `COc1ccc(-c2cn(-c3ccc(Br)cc3)c3[n+]2CCS3)cc1` &field=inhibition returns 5.88

Record `C/C(Cl)=C/Cn1c(SCC(C)C)nc2c1c(=O)[nH]c(=O)n2C` , field inhibition: 3.03

Recorded result, `CCOc1ccccc1NC(=O)NC1(C(=O)N2CCOCC2)CCCCC1` , inhibition: -10.7

Lab book: inhibition of `Cc1ccc2nc(-c3cccnc3)c(Nc3ccccc3C)n2c1` noted as 5.59

The molecule listed as `CC(/C=C/c1ccco1)=N\NC(=O)c1cc(C)[nH]n1` shows inhibition equal to -12

Noted for `C[C@@H]1CC[C@]2(O[C@@H](CCO)C[C@@H](O)[C@@H]2O)O1` : its inhibition reads -6.09

inhibition reported for this molecule `CN(CC(=O)Nc1ccccn1)S(=O)(=O)c1ccc(Cl)cc1` : -2.26

Lab note: CC(c1ccccc1C(O)c1ccccc1)N(C)C (stereo not drawn) gave inhibition of -3.64

Please fill in: inhibition reported for `CC(=O)c1c(-c2ccc(Cl)cc2Cl)noc1C` = 2.75

Entry `O=C(Nc1ccccc1)c1ccn[nH]1` ; inhibition = -7.96

For this molecule ( CC(c1ccccc1C(O)(c1ccccc1)c1ccccc1)N(C)C (stereo not drawn) ), measured inhibition is 12.7

response.value for `COc1ccc(/C=C2\Cc3ccccc3C2=O)cc1OC` (field: inhibition) = 4.06

molecule `COc1cccc(-c2csc(N3CCN(C(=O)Nc4ccc(F)cc4)CC3)n2)c1` , inhibition observed: 20.3

====

test.description: M. tuberculosis H37Rv growth inhibitors, H37Rv strain (AID 1626);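 note: bacteria incubated seven days before Alamar blue readout; 0% = bacteria only wells and 100% = bacteria with antibiotic wells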
measurement.conditions: hits give high values, concentration not given here
Among all 220,000 compounds or so, about 2,000 (0.91%) were called active. Roughly 2% stayed inconclusive and do not appear here. Only a sample is shown. Results with a measured potency or affinity are listed apart.
Assign inhibition to each entry below.
Enter your answer as a number in %; do not include the unit.

The recorded inhibition for COc1ccc(/C=N/NC(=O)C2C3CCCCC32)cc1OC (configuration not stated) is 1.66

Short answer for `Cc1cccc(NC(=O)CCOc2ccccc2)c1` : inhibition was -1.8

Entry COc1ccccc1COCC(O)CN(Cc1ccco1)Cc1ccccc1O (configuration not stated) — recorded inhibition = 11.4

Reported inhibition of O=c1c2ccccc2nc(SCc2ccncc2)n1CC1CCCO1 (configuration not stated) : 4.12

Noted for CN(C)C(CNC(=O)c1cc(S(=O)(=O)N(C)c2ccccc2)ccc1Cl)c1cccs1 (configuration not stated) : its inhibition reads -3.17

Lab note: measured inhibition of `Cc1cccc(S(=O)(=O)NNC(=O)Cc2cccn2C)c1` was 3.18

Reported inhibition of `COc1ccc(NC(=O)NCCCN2CCC(Cc3ccccc3)CC2)cc1` : -4.94

Sample `CCN(CC)C(=O)C(=O)Nc1ccc(Oc2ccccc2)cc1` ; inhibition observed: 14.4

So for O=C(CN1C(=O)NC2NC(=O)NC21)NN=C1CCCC1 (configuration not stated) , the logged inhibition turned out to be -3.27

The recorded inhibition for `Cc1ccc(S(=O)(=O)NC(=O)Nc2cc(C(C)(C)C)on2)cc1` is -7.06

Short answer for `O=C(CSc1nnc(CNc2ccc(F)cc2)n1Cc1ccccc1)NCc1ccco1` : inhibition was -3.56

inhibition measured on `CC(=O)Nc1ccc(NC(=O)Cn2cc3c(n2)CCCC3)cc1` = -8.53

Cited source for all entries: PubChem BioAssay AID1626
